Molecular target: RXRa (Homo sapiens, UniProt P19793)
Sequence (P19793 whole entry): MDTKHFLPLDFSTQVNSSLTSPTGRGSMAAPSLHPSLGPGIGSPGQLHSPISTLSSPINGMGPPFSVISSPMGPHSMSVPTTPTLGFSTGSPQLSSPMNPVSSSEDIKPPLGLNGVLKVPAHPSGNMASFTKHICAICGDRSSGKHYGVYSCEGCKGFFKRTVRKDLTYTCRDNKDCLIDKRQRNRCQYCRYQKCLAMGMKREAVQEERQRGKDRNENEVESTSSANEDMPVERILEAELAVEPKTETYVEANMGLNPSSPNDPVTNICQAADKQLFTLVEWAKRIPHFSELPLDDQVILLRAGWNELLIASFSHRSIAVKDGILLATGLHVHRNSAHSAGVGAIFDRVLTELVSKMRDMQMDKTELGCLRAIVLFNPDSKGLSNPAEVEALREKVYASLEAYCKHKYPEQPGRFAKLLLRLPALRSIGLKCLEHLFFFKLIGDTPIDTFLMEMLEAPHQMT
Test: no ligand; PBM; 180 nM; PBS pH 7.4, 2% milk, 0.02% Triton X-100, 1 mM DTT, BSA, 0.4 mg/ml salmon testes DNA
Settings: tags: His cleaved; chain copies: 2; label: surface-attached array probe
QUANTITY_MEASURED: binding signal

Lookup: Suppose we examine the binder NRC3_wobSeed45_DR1_A20C_o1 (dsDNA) DNA 1: GCTGTCAAAGTTCAAAGGTCACGTAAGTATCCACACGCGATTGACAGCGTAGAATGAAGG DNA 2: CCTTCATTCTACGCTGTCAATCGCGTGTGGATACTTACGTGACCTTTGAACTTTGACAGC ; what binding signal value has been reported?
Found: 11 PBM z-score against 500 random probes
